FYI, the data here is from patent US12162836B2.

Kindly state pIC50 for each of the entries shown.
- Experimental System: UniProtKB P08684
- Sequence (P08684 whole entry): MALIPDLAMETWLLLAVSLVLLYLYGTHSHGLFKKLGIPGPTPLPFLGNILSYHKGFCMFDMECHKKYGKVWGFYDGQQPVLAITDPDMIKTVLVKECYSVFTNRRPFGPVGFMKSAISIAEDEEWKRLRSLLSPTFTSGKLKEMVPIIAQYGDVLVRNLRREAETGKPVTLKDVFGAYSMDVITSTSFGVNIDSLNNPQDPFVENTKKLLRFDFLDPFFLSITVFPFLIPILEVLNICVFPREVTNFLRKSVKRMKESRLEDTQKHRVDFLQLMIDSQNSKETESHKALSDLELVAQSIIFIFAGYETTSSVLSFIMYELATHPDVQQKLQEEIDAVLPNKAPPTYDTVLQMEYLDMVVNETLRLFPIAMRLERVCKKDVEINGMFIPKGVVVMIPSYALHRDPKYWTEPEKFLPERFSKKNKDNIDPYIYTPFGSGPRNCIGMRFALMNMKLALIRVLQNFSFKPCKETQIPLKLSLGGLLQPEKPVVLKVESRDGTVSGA
- Experimental Details: Human Cytochrome P450 Inhibition Assay (Bactosomes)
- Type: in vitro ADME
- Run Parameters: recombinant Bactosomes, 10 minutes
Numbers only, as −log10 of the molar value.

Worked cases, pIC50 given:
[
  {
    "Compound": "CC1(O)CCC(NS(=O)(=O)c2ccc(-c3ccc(C#N)cc3Cl)cc2)CC1 (stereo not drawn) [HMC-C-09-A, reference compound]",
    "pIC50": 4.48
  },
  {
    "Compound": "CC1(O)CCC(NS(=O)(=O)c2ccc(-c3cc(F)c(F)cc3F)cc2)CC1 (stereo not drawn) [HMC-C-10-B, reference compound]",
    "pIC50": 5.04
  },
  {
    "Compound": "CC1(O)CCC(NS(=O)(=O)c2ccc(-c3ccc(F)cc3F)cc2)CC1 (stereo not drawn) [ABD899, reference compound]",
    "pIC50": 4.67
  }
]

Consider the record given below.
Req: GET /values?readout=pIC50&item= `CC(=O)N1CCC(CS(=O)(=O)c2ccc(-c3c(F)cccc3F)cc2)CC1`
Resp: 4.35
